# Test system: ANKA strain of P. berghei
# Assay: Single dose STI in vivo screen in infected mice
# Design: species or system Plasmodium berghei
# Conditions used: single 10 mg/kg sc in 3% ethanol and 7% Tween 80; untreated 6-7 days
Outcome: met for Survival (days) 10 mg/kg sc of at least 9 days; not met for anything lower.

# Molecule, Answer label
measured = [
    ("O=C(NC[C@H]1CC[C@]2(CC1)OOC1(O2)C2CC3CC(C2)CC1C3)c1ccncc1 (stereo partly drawn) [OZ255]", "met"),
]

Item C(CNC1CCC2(CC1)OOC1(O2)C2CC3CC(C2)CC1C3)CN1CCOCC1 (stereo not drawn) [OZ161] with Survival (days) 10 mg/kg sc of 9 days or above? met

Item CN1CCN(C(=O)NC[C@H]2CC[C@]3(CC2)OOC2(O3)C3CC4CC(C3)CC2C4)CC1 (stereo partly drawn) [OZ267] with Survival (days) 10 mg/kg sc of 9 days or above? met

Item CCOC(=O)N1C2CCC1CC1(C2)OOC2(O1)C1CC3CC(C1)CC2C3 (stereo not drawn) [OZ110] with Survival (days) 10 mg/kg sc of 9 days or above? not met

Item CCOC(=O)c1ccc(OC[C@H]2CC[C@]3(CC2)OOC2(O3)C3CC4CC(C3)CC2C4)cc1 (stereo partly drawn) [OZ166] with Survival (days) 10 mg/kg sc of 9 days or above? not met

Item O=C(NC[C@H]1CC[C@]2(CC1)OOC1(O2)C2CC3CC(C2)CC1C3)c1cccc[n+]1[O-] (stereo partly drawn) [OZ270] with Survival (days) 10 mg/kg sc of 9 days or above? met
